conditions: 298.15 K; 101.33 kPa; Liquid; Pycnometric method
Each item that follows carries a reported mass density.
Quick note: give the figure in kg/m3, leave out the unit.

Known mass density results, listed for orientation:
>>> df
   item_smiles  quantity_unit  numeric_result
0     c1ccccc1          kg/m3          873.62
1    Cc1ccccc1          kg/m3          862.23
2    O=C1CCCN1          kg/m3         1107.26

Consider now this further molecule.
Any idea what mass density was measured for CCCO ?
799.28
